# System: SmLux
# Run Description: Computationally generated LgLux variants expressed in E. coli, tested in lysates with SmLux and substrate 1c
# Type: biochemical
# Condition: 50 uM substrate 1c, before SmLux peptide addition
Observed Property: Baseline Signal (Normalized by expression)
No unit in the answer, please; the number alone is enough.

Looking up 5116 (protein) MTPEEIRANVERFYAALASGDLDTAKALFDPGTTITLWDGTTFTSLEEFLAWFEKQFKASKDAKREIVELEIEGNVVRVLVRLTYVKDGKEQVVDLLQLLKFV , I see its Baseline Signal (Normalized by expression) listed as 162.6

Looking up 5276 (protein) MTDEEIRANVRAFYAALASGDLEAAKALFDPGVTITLWDGTTFTSVEEFRAWFEKQFKTSKDALREIESLEVEGDTVRVLVRLTFVRDGKEQVVDLLQLFKFV , I see its Baseline Signal (Normalized by expression) listed as 125.6

Looking up 5277 (protein) MTPEEIRANVRAFYAALASGDLEAAKALFDPGVTITLWDGTTFTSVEEFRKWFEEQFKTSKDALREIVEMRIEGDVVRVLVRLTFVRDGKEQVVDLLQLFKFV , I see its Baseline Signal (Normalized by expression) listed as 120.6

Looking up 5289 (protein) MTPEEIRANVERFYAALASGDLAAAKALFDPGVTITLWDGTTFTSVEEFRAWFEEQFQTSKDALREIVSMEIDGDTVRVLVRLTFVRDGEEQEVDLLQLFKFV , I see its Baseline Signal (Normalized by expression) listed as 173.8
